The reader will find reported log10 of IC50 values listed item by item below.
Biological target: IKKε (Homo sapiens (Human), UniProt Q14164)
Sequence (Q14164 whole entry): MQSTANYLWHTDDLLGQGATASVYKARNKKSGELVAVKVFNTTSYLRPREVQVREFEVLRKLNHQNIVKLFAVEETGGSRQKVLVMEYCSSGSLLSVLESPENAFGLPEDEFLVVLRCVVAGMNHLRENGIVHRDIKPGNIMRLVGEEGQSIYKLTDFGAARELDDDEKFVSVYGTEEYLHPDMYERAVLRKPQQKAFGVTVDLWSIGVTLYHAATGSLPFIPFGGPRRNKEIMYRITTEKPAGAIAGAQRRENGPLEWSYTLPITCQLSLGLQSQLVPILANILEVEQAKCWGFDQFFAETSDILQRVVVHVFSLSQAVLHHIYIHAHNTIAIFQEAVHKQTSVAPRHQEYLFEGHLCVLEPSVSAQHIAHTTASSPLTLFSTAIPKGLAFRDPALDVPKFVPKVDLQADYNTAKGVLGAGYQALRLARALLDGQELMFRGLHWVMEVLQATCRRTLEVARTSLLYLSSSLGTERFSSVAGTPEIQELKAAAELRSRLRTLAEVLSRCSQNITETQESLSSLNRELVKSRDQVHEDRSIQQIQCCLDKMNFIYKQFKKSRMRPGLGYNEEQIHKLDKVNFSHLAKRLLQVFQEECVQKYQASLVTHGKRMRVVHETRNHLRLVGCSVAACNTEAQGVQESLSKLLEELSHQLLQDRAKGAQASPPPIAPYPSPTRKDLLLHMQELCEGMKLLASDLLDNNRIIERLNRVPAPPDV
Assay: IKKε TR-FRET enzymatic assay
Assay type: biochemical
Details: read-out: IKKe IC50
Readout label: log10 of IC50 (log10 of the value in nM)

- CS(=O)(=O)N1CC[C@@H](Oc2ccc(-c3ncnc(Nc4ccc(N5CCN(C6COC6)CC5)cc4)n3)cc2C#N)C1: 1.90
- N#Cc1cc(-c2ncnc(Nc3ccc(N4CCN(C5COC5)CC4)cc3)n2)ccc1O[C@H]1CCN(C(=O)c2cnn[nH]2)CC1(F)F: 0.00
- N#Cc1cc(-c2ncnc(Nc3ccc(N4CCN(C5COC5)CC4)cc3)n2)ccc1O[C@H]1CCN(C(=O)c2nnc[nH]2)C[C@H]1F: 0.00
- COc1cc(Nc2ncnc(-c3ccc(O[C@H]4CCN(C(=O)[C@H](C)O)C[C@H]4F)c(C#N)c3)n2)ccc1N1CCC(N2CCOCC2)CC1: 0.00
- C[C@H]1CN(C2COC2)CCN1c1ccc(Nc2ncnc(-c3ccc(O[C@H]4CCN(C(=O)c5ccn[nH]5)C[C@H]4F)c(C#N)c3)n2)cc1: 0.00
- COc1ccc(Nc2ncnc(-c3ccc(OC4CCOCC4)c(C#N)c3)n2)cn1: 1.74
- N#Cc1cc(-c2ncnc(Nc3ccc(N4CCOCC4)cc3)n2)ccc1O[C@@H]1CCN(C(=O)CO)C1: 1.00
- N#Cc1cc(-c2ncnc(Nc3cc(F)c(N4CCN(C5COC5)CC4)c(F)c3)n2)ccc1OC1CCOCC1: 1.08
- C[C@H](O)C(=O)N1CC[C@H](Oc2ccc(-c3ncnc(Nc4cnn(C(C)(C)C)c4)n3)cc2C#N)[C@H](F)C1: 0.70
- N#Cc1cc(-c2ncnc(Nc3ccc(N4CCOCC4)cc3)n2)ccc1N1CCCC1: 1.26
- C[C@H](O)C(=O)N1CC[C@H](Oc2c(F)cc(-c3ncnc(Nc4ccc(N5CCN(C6COC6)CC5)cc4)n3)cc2C#N)[C@H](F)C1: 0.60
- N#Cc1cc(-c2ncnc(Nc3ccc(N4CCN(C5COC5)CC4)cc3)n2)ccc1O[C@H]1CCN(C(=O)C2CCS(=O)(=O)N2)C[C@H]1F (some centres unmarked): 1.04
- N#Cc1cc(-c2ncnc(Nc3ccc(C(N)=O)cc3)n2)ccc1OC1CCOCC1: 0.70
- N#Cc1cc(-c2ncnc(Nc3ccc(N4CCN(C5COC5)CC4)cc3)n2)ccc1OCC1(C(N)=O)CC1: 1.30

###

Molecular target: TBK1 (Homo sapiens (Human))
Assay: TBK1 TR-FRET enzymatic assay
pIC50: −log10 of the molar value.
Readout label: pIC50

• N#Cc1cc(-c2ncnc(Nc3ccc(N4CCN(C5COC5)CC4)cc3)n2)ccc1OC1CCC(F)(F)CC1 [Example 60] = 8.52
• N#Cc1cc(-c2ncnc(Nc3ccc(N4CCN(C5COC5)CC4)cc3)n2)ccc1O[C@H]1CCN(C(=O)c2cn[nH]c2Cl)C[C@H]1F [Example 136] = 7.34
• N#Cc1cc(-c2ncnc(Nc3ccc(N4CCN(C5COC5)CC4)cc3)n2)ccc1O[C@H]1C[C@@H]2C[C@H]1N(C(=O)CO)C2 [Example 102] = 7.96
• C[C@H](O)C(=O)N1CC[C@H](Oc2ccc(-c3ncnc(Nc4cnn(C(F)F)c4)n3)cc2C#N)[C@H](F)C1 [Example 457] = 7.89
• N#Cc1cc(-c2ncnc(Nc3ccc(N4CCN(C5COC5)CC4)cc3)n2)ccc1O[C@H]1CCN(C(=O)Cc2ccn[nH]2)C[C@H]1F [Example 320] = 7.85
• CC(=O)N1CC[C@H](Oc2ccc(-c3ncnc(Nc4ccc(N5CCN(C6COC6)CC5)cc4)n3)cc2C#N)[C@H](F)C1 [Example 289] = 8.40

###

Target: IKKε (Homo sapiens (Human), UniProt Q14164)
Assay: IKKε TR-FRET enzymatic assay
Type: biochemical
Settings: read-out: IKKe IC50
pIC50: −log10 of the molar value.
Readout label: pIC50

- COc1cc(Nc2ncnc(-c3ccc(OC4CCOCC4)c(C#N)c3)n2)ccc1C(N)=O: 8.22
- N#Cc1cc(-c2ncnc(Nc3ccc(N4CCN(C5COC5)CC4)cc3)n2)ccc1OCC1CCNC(=O)C1 (stereo not drawn): 7.43
- N#Cc1cc(-c2ncnc(Nc3ccc(N4CCN(C5COC5)CC4)cc3)n2)ccc1O[C@@H]1CCN(C(=O)CO)C[C@@H]1F [Example 224]: 7.64
- COc1cc(Nc2ncnc(-c3ccc(OC4CCN(C(=O)[C@H](C)O)CC4)c(C#N)c3)n2)ccc1N1CCN(C2COC2)CC1: 8.10
- N#Cc1cc(-c2ncnc(Nc3ccc(N4CCN(C5COC5)CC4)cc3)n2)ccc1O[C@H]1CCN(C2COC2)C[C@H]1F: 6.48
- CC1(O)CCN(c2ccc(Nc3ncnc(-c4ccc(OC5CCOCC5)c(C#N)c4)n3)cc2)C1 (stereo not drawn): 8.22

###

Molecular target: TBK1 (Homo sapiens (Human), UniProt Q9UHD2)
Sequence (Q9UHD2 whole entry): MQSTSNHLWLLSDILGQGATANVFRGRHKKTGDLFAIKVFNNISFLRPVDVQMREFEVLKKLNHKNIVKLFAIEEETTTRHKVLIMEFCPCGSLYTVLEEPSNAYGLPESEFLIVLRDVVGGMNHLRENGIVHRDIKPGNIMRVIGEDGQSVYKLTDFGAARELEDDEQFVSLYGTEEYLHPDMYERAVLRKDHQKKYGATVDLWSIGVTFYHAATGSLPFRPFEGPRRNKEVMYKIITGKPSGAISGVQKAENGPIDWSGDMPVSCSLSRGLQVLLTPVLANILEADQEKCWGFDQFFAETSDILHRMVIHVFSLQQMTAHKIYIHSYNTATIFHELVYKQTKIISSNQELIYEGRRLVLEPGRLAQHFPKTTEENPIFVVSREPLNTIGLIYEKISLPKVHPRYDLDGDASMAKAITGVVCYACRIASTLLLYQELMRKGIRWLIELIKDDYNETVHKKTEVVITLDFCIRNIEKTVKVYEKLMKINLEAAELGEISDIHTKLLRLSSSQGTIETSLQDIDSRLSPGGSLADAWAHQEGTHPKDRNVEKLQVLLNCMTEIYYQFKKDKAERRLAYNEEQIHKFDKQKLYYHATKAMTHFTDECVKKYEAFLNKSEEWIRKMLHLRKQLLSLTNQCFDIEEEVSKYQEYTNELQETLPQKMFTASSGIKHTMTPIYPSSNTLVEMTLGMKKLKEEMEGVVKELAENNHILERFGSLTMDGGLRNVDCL
Assay: TBK1 TR-FRET enzymatic assay;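 also: phosphorylation of a biotinylated Ser/Thr peptide by purified full-length recombinant TBK1, read by TR-FRET after 240 min at 25 °C, IC50 is the geometric mean of at least four runs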
Readout label: IC50 (nM)

• COc1cc(Nc2ncnc(-c3ccc(O[C@H]4CCN(C(=O)[C@H](C)O)C[C@H]4F)c(C#N)c3)n2)ccc1S(C)(=O)=O [Example 483] = 8
• N#CCC(=O)N1CC[C@@H](Oc2ccc(-c3ncnc(Nc4ccc(N5CCN(C6COC6)CC5)cc4)n3)cc2C#N)C1 [Example 90] = 7
• N#Cc1cc(-c2ncnc(Nc3ccc(N4CCN(C5COC5)CC4)cc3)n2)ccc1O[C@H]1CCN(C(=O)C2(C#N)CC2)C[C@H]1F [Example 587] = 30

###

The reader will find reported pIC50 values listed item by item below.
Biological target: IKKε (Homo sapiens (Human), UniProt Q14164)
Experiment: IKKε TR-FRET enzymatic assay
Type: biochemical
Settings: read-out: IKKe IC50
pIC50: −log10 of the molar value.
Readout label: pIC50

* C[C@H](O)C(=O)N1CC[C@H](Oc2ccc(-c3ncnc(Nc4ccc(N5CCOC[C@@H]5CO)cc4)n3)cc2C#N)[C@H](F)C1 [Example 387] | 8.70
* N#Cc1cc(-c2ncnc(Nc3ccc(N4CCN(C5COC5)CC4)cc3)n2)ccc1O[C@H]1CCN(C(=O)Cn2cnnc2)C[C@H]1F [Example 377] | 6.89
* N#Cc1cc(-c2ncnc(Nc3ccc(N4CCN(C5COC5)CC4)cc3)n2)ccc1N1CC2(CCO2)C1 [Example 210] | 7.15
* C[C@H](O)C(=O)N1CC[C@H](Oc2ccc(-c3ncnc(Nc4ccc(N5CCN(C6COC6)[C@@H](C)C5)cc4)n3)cc2C#N)C(F)(F)C1 [Example 262] | 9.00
* C[C@H](O)C(=O)N1CCC(Oc2ccc(-c3ncnc(Nc4ccc(C5CCN(C6COC6)CC5)cc4)n3)cc2C#N)CC1 [Example 23] | 8.00
* C[C@@H](CO)C(=O)N1CC[C@H](Oc2ccc(-c3ncnc(Nc4ccc(N5CCN(C6COC6)CC5)cc4)n3)cc2C#N)[C@H](F)C1 [Example 123] | 6.88
* CC1(C)CN(C(=O)CO)C[C@@H](F)[C@H]1Oc1ccc(-c2ncnc(Nc3ccc(N4CCN(C5COC5)CC4)cc3)n2)cc1C#N (single isomer, unassigned) [Example 179] | 7.89
* Cc1nn(C)c2cc(Nc3ncnc(-c4ccc(O[C@H]5CCN(C(=O)CO)C[C@H]5F)c(C#N)c4)n3)ccc12 [Example 346] | 9.00
* N#Cc1cc(-c2ncnc(Nc3ccc(N4CCN(C5COC5)CC4)cc3)n2)ccc1N1CC[C@H](F)C1 [Example 201] | 8.30
* C[C@H](O)C(=O)N1CC[C@H](Oc2ccc(-c3ncnc(Nc4ccc(N5CCN(C6COC6)CC5)cc4)n3)cc2C#N)C[C@H]1C [Example 183] | 6.92
* N#Cc1cc(-c2ncnc(Nc3ccc(N4CCN(C5COC5)CC4)cc3)n2)ccc1O[C@H]1CCC(=O)NC1 [Example 114] | 7.25
* CC(C)[C@H](Oc1ccc(-c2ncnc(Nc3ccc(N4CCN(C5COC5)CC4)cc3)n2)cc1C#N)C(N)=O [Example 286] | 6.63

###

Target: IKKε (Homo sapiens (Human))
Assay: IKKε TR-FRET enzymatic assay
Type: biochemical
Conditions: read-out: IKKe IC50
pIC50: −log10 of the molar value.
Would you mind labelling by pIC50? At or over 8 is MET, under is NOT MET.

- COc1cc(Nc2ncnc(-c3ccc(OC4CCOCC4)c(C#N)c3)n2)ccc1OC(F)F [Example 31]: NOT MET
- N#Cc1cc(-c2ncnc(Nc3ccc(N4CCN(C5COC5)CC4)cc3)n2)ccc1OC1CCNCC1(F)F (racemic) [Example 148]: NOT MET
- N#Cc1cc(-c2ncnc(Nc3ccc(N4CCN(C5COC5)CC4)cc3)n2)ccc1O[C@H]1CCN(C(=O)C(O)CO)C[C@H]1F (some centres unmarked) [Example 348]: MET
- N#Cc1cc(-c2ncnc(Nc3ccc(N4CCN(C5COC5)CC4)cc3)n2)ccc1O[C@H]1CCN(C(=O)c2ccn[nH]2)C[C@H]1F [Example 145]: MET
- C[C@H](O)C(=O)N1CC[C@H](Oc2ccc(-c3ncnc(Nc4ccc(N5CCO[C@@H](C(N)=O)C5)cc4)n3)cc2C#N)[C@H](F)C1 [Example 315]: MET
- Cn1cc(Nc2ncnc(-c3ccc(N4CCCC4)c(C#N)c3)n2)cn1 [Example 8]: NOT MET
- N#Cc1cc(-c2ncnc(Nc3ccc(N4CCN(C5COC5)CC4)cc3)n2)ccc1O[C@@H]1CCN(C(=O)CCO)C1 [Example 89]: NOT MET
- N#Cc1cc(-c2ncnc(Nc3ccc(N4CCN(C5COC5)CC4)cc3)n2)ccc1O[C@@H]1CCN(C(=O)CO)C[C@@H]1F (racemic) [Example 218]: MET
- Cc1cc(Nc2ncnc(-c3ccc(O[C@H]4CCN(C(=O)[C@H](C)O)C[C@H]4F)c(C#N)c3)n2)ccc1N1CCN(C2COC2)CC1 [Example 396]: MET
- C[C@H](O)C(=O)N1CC[C@H](Oc2ccc(-c3ncnc(Nc4ccc(N5CCOC(C(N)=O)C5)cc4)n3)cc2C#N)[C@H](F)C1 (some centres unmarked) [Example 314]: MET
- C[C@H](O)C(=O)N1CC[C@H](Oc2ccc(-c3ncnc(Nc4cnn(CC(F)F)c4)n3)cc2C#N)[C@H](F)C1 [Example 352]: MET
- N#Cc1cc(-c2ncnc(Nc3ccc(N4CCN(C5COC5)CC4)cc3)n2)ccc1F [Example 87]: NOT MET
